molecular target: HLA-A*02:01 (Homo sapiens, UniProt P04439, D140Y/D185E/D98H/E176V/E277Q/G131W/G231S/I119V/I121R/I166T/I218V/L300P/L318F/N151K/N90K/P208A/P217A/Q86G/Q94H/R138H/R169H/T345S); experiment: MHC binding assay (UV-ligand exchange, ELISA of stabilized MHC complexes); conditions: MHC class I binding score; binding to HLA-A*02:01 ranged by peptide exchange yield (UV-ligand exchange, ELISA)
test readout: Peptide exchange

// solved cases for Peptide exchange follow
substance="604 (SILDRDDIFV; listed as Homo sapiens) [compound 604]" test_readout="Peptide exchange" endpoint_result="″+++″ (≥50% = +++)"
substance="251 (ALYTGFSILV; listed as Homo sapiens) [compound 251]" test_readout="Peptide exchange" endpoint_result="″++″ (≥20% = ++)"
substance="430 (HLYSSIEHLTT; listed as Homo sapiens) [compound 430]" test_readout="Peptide exchange" endpoint_result="″+++″ (≥50% = +++)"
substance="278 (QLLDVVLTI; listed as Homo sapiens) [compound 278]" test_readout="Peptide exchange" endpoint_result="″++″ (≥20% = ++)"
substance="135 (ALSEVDFQL; listed as Homo sapiens) [compound 135]" test_readout="Peptide exchange" endpoint_result="″+++″ (≥50% = +++)"

Request: Give its Peptide exchange value. Item: 523 (YQIPRTFTL; listed as Homo sapiens) [compound 523]
Response: ″++″ (≥20% = ++)

Request: Recorded Peptide exchange of 273 (NLFQSVREV; listed as Homo sapiens) [compound 273] , please.
Response: ″++″ (≥20% = ++)

Request: Which Peptide exchange value belongs to 39 (SVAPNLPAV; listed as Homo sapiens) [compound 39] ?
Response: ″+++″ (≥50% = +++)

Request: Look up Peptide exchange for this substance: 59 (IMEDIILTL; listed as Homo sapiens) [compound 59]
Response: ″+++″ (≥50% = +++)

Request: Give the measured Peptide exchange of 181 (LLWAGTAFQV; listed as Homo sapiens) [compound 181] .
Response: ″+++″ (≥50% = +++)

Request: Which Peptide exchange value is on record for 516 (AVGPASILKEV; listed as Homo sapiens) [compound 516] ?
Response: ″++″ (≥20% = ++)

Request: Find the recorded Peptide exchange belonging to 216 (NLWEDPYYL; listed as Homo sapiens) [compound 216] and report it.
Response: ″+++″ (≥50% = +++)

Request: Name the recorded Peptide exchange for 317 (SLAALVVHV; listed as Homo sapiens) [compound 317] .
Response: ″+++″ (≥50% = +++)

Request: Entry 486 (AVMESIQGV; listed as Homo sapiens) [compound 486] has what Peptide exchange?
Response: ″+++″ (≥50% = +++)

* * *

molecular target: HLA-A*02:01 (Homo sapiens, UniProt P04439, D140Y/D185E/D98H/E176V/E277Q/G131W/G231S/I119V/I121R/I166T/I218V/L300P/L318F/N151K/N90K/P208A/P217A/Q86G/Q94H/R138H/R169H/T345S); assay: MHC binding assay (UV-ligand exchange, ELISA of stabilized MHC complexes); details: MHC class I binding score; binding to HLA-A*02:01 ranged by peptide exchange yield (UV-ligand exchange, ELISA)
test readout: Peptide exchange

Below, 5 substances whose answers are already recorded.
substance="87 (ALPEAPAPLLPHIT; listed as Homo sapiens) [compound 87]" endpoint_result="″++″ (≥20% = ++)"
substance="391 (YVYPQRLNFV; listed as Homo sapiens) [compound 391]" endpoint_result="″+++″ (≥50% = +++)"
substance="5 (HLTEVYPEL; listed as Homo sapiens) [compound 5]" endpoint_result="″+++″ (≥50% = +++)"
substance="582 (TLCDVILMV; listed as Homo sapiens) [compound 582]" endpoint_result="″+++″ (≥50% = +++)"
substance="492 (SLFDGFADGLGV; listed as Homo sapiens) [compound 492]" endpoint_result="″+++″ (≥50% = +++)"

Request: Recorded Peptide exchange for 288 (NLINEINGV; listed as Homo sapiens) [compound 288] , please?
Response: ″+++″ (≥50% = +++)

Request: Given 193 (QLLDADGFLNV; listed as Homo sapiens) [compound 193] , state its recorded Peptide exchange.
Response: ″+++″ (≥50% = +++)

Request: Endpoint output: Peptide exchange of 99 (ALVSKGLATV; listed as Homo sapiens) [compound 99] . Value?
Response: ″++″ (≥20% = ++)

Request: May I ask what Peptide exchange has been recorded for 35 (KINDTIYEV; listed as Homo sapiens) [compound 35] ?
Response: ″+++″ (≥50% = +++)

Request: Consider the substance 228 (AMQEYIAVV; listed as Homo sapiens) [compound 228] and give its measured Peptide exchange.
Response: ″++″ (≥20% = ++)

Request: Requested read-out: Peptide exchange. Entry: 9 (GAAKDLPGV; listed as Homo sapiens) [compound 9]
Response: ″++″ (≥20% = ++)

Request: Please give the measured Peptide exchange for this substance: 387 (ALFQATAEV; listed as Homo sapiens) [compound 387]
Response: ″++++″ (≥75% = ++++)

Request: Entry under review: 479 (SLFGNSGILENV; listed as Homo sapiens) [compound 479] . Reported Peptide exchange?
Response: ″+++″ (≥50% = +++)

Request: I'd like to know its Peptide exchange. The substance in question is 544 (LLWDVPAPSL; listed as Homo sapiens) [compound 544]
Response: ″+++″ (≥50% = +++)

Request: So what does the record say about Peptide exchange for 517 (LLMPIPEGLTL; listed as Homo sapiens) [compound 517] ?
Response: ″+++″ (≥50% = +++)

Request: Entry 225 (SLLKVLPAL; listed as Homo sapiens) [compound 225] : reported Peptide exchange = ?
Response: ″+++″ (≥50% = +++)

Numbers sourced from patent US10472401B2.
